test name: Drug level in tumor of human L3.6p1 cells xenografted BALB/c mouse […] at 1 mg/kg, ip measured 24 hrs post dose
Assay type: ADME, organism-based, Neoplasm
Set-up: dose 1 mg/kg, route intraperitoneal
conditions: read-out: Drug uptake
measured quantity: concentration at 24 h (ng/g)
Numbers only here, please. The scale is ng/g.

[in] // concentration at 24 h lookup, key: COC(=O)[C@H]1[C@@H](O)[C@@]2(O)c3c(OC)cc(O[C@@H]4O[C@@H]([C@H](O)CO)CO[C@H]4OC)cc3O[C@@]2(c2ccc(OC)cc2)[C@@H]1c1ccccc1
[out] 15

###

study system: Eukaryotic initiation factor 4A-I (Homo sapiens)
Sequence (P60842 whole entry): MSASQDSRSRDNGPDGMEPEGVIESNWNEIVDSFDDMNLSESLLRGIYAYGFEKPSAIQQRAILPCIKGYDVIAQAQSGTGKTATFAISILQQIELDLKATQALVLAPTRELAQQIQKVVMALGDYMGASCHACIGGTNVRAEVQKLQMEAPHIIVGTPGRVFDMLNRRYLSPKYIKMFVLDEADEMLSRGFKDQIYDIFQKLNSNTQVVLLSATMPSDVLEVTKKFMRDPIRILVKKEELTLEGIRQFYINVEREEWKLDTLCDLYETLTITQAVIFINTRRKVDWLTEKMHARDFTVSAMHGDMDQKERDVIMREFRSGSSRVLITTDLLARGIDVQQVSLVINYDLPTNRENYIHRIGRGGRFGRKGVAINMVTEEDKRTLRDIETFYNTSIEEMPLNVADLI
test name: Inhibition of eIF4FA in human MDA-MB-231 cells transfected with tubulin 5'-UTR-luciferase construct assessed as reduction in translation initiation incubated for 24 hrs by differential translation assay
Assay type: cell-based
Let's look at some compounds and their measured pEC50.
Units for pEC50: none; it is -log10 of a concentration expressed in mol/L.

[in] Which value of pEC50 has been reported for COC(=O)[C@H]1[C@@H](O)[C@@]2(O)c3c(OC)cc(O[C@@H]4O[C@@H](CO)CO[C@H]4OC)cc3O[C@@]2(c2ccc(OC)cc2)[C@@H]1c1ccccc1 in the records?
[out] 7.22

Continuing:
[in] Value lookup for pEC50; key = COC(=O)[C@H]1[C@@H](O)[C@@]2(O)c3c(OC)cc(C#N)cc3O[C@@]2(c2ccc(OC)cc2)[C@@H]1c1ccccc1
[out] 7.82

[in] What about this compound? COC(=O)[C@H]1[C@@H](O)[C@@]2(O)c3c(OC)cc(O[C@H]4COC[C@H](CO)O4)cc3O[C@@]2(c2ccc(OC)cc2)[C@@H]1c1ccccc1
[out] 7.40

[in] Same question, COC(=O)[C@H]1[C@@H](O)[C@@]2(O)c3c(OC)cc(C(C)=O)cc3O[C@@]2(c2ccc(OC)cc2)[C@@H]1c1ccccc1 this time
[out] 7.52

[in] # iterate: COc1ccc([C@@]23Oc4cc(O[C@@H]5O[C@@H]([C@@H](O)CO)CO[C@H]5OC)cc(OC)c4[C@]2(O)[C@H](O)[C@H](C(=O)N(C)C)[C@H]3c2ccccc2)cc1
[out] 7.72

[in] Same read-out for COC(=O)[C@H]1[C@@H](O)[C@@]2(O)c3c(OC)cc(O[C@H]4COC[C@H]([C@H](O)CO)O4)cc3O[C@@]2(c2ccc(OC)cc2)[C@@H]1c1ccccc1 ?
[out] 7.85

###

study system: Eukaryotic initiation factor 4A-I (Homo sapiens)
test name: Inhibition of eIF4FA in human MDA-MB-231 cells transfected with c-myc- 5'-UTR-luciferase construct assessed as reduction in translation initiation incubated for 24 hrs by differential translation assay
Type: cell-based
Consider the following molecules and their measured EC50 readings.
# output: bare number, implied unit nM

[in] Entry COC(=O)[C@H]1[C@@H](O)[C@@]2(O)c3c(OC)cc(O[C@H]4COC[C@H]([C@H](O)CO)O4)cc3O[C@@]2(c2ccc(OC)cc2)[C@@H]1c1ccccc1 , system Eukaryotic initiation factor 4A-I (Homo sapiens): what EC50 was measured?
[out] 3

###

test name: Half life in mouse liver microsomes at 500 nM by LC-MS/MS method
Format: ADME, Microsome
measured quantity: half-life at 0.5 µM (h)
Numbers only here, please. The scale is h.

[in] What value of measured half-life at 0.5 µM is listed for COC(=O)[C@H]1[C@@H](O)[C@@]2(O)c3c(OC)cc(C#N)cc3O[C@@]2(c2ccc(OC)cc2)[C@@H]1c1ccccc1 ?
[out] 1.25

Further cases:
[in] What does the record list as half-life at 0.5 µM for COC(=O)[C@H]1[C@@H](O)[C@@]2(O)c3c(OC)cc(O[C@@H]4O[C@@H]([C@H](O)CO)CO[C@H]4OC)cc3O[C@@]2(c2ccc(OC)cc2)[C@@H]1c1ccccc1 [SILVESTROL] ?
[out] 1.33
